Values were extracted from PubChem BioAssay AID2314.

experiment: Cycloheximide Counterscreen for Small Molecule Inhibitors of Shiga Toxin; details: cell reporter, cycloheximide protein synthesis inhibition counterscreen; active compounds read high; further: read at 38.3 µM for the half of the compounds with a filed dose; 0% is about no effect
Among all 300,000 compounds or so, about 37,000 (12%) were called active. The sample as a whole holds a higher share of actives than the screen did.
Could you please report measured max response for the items listed next?
Only the number, expressed in %, is required.

Ask: Item Cc1ccccc1-c1nc(CS(=O)(=O)CC(=O)N2CCc3ccccc3C2)c(C)o1 : provide max response
Reply: 0.61

Ask: Item Cc1noc(C)c1CSCC(=O)N(CCC(C)C)c1c(N)n(Cc2ccccc2)c(=O)[nH]c1=O : provide max response
Reply: -1.36

Ask: Item O=C(Cn1c(=S)nc2ccccn21)N1CCc2ccccc2C1 : provide max response
Reply: 22.4

Ask: Item O=C(O)CSCc1nc2ccccc2s1 : provide max response
Reply: 27.6

Ask: Item COc1ccc(-c2cc(=O)oc3cc(OCC(=O)N[C@@H](Cc4c[nH]c5ccccc45)C(=O)O)ccc23)cc1 : provide max response
Reply: 0.573

Ask: Item COc1cccc(NC(=O)c2ccc(Cn3cc([N+](=O)[O-])cn3)o2)c1 : provide max response
Reply: 1.95

Ask: Item COc1ccc(-c2onc(C)c2-c2ccc3c(c2)OCCO3)c(O)c1 : provide max response
Reply: -1.9

Ask: Item COc1ccc(C(=O)Nc2sc(C)c(C)c2CN2CCOCC2)cc1 : provide max response
Reply: 80

Ask: Item O=C(O)CC/C(=C\c1cc2c(cc1Br)OCO2)c1nc2ccccc2s1 : provide max response
Reply: 0.661

Ask: Item COc1cc(-c2c(-c3ccc4c(c3)OCO4)noc2C)ccc1F : provide max response
Reply: 31.7

Ask: Item COc1cccc(C(=O)N2CCC(n3nccc3NC(=O)C3CCOC3)CC2)c1 (configuration not stated) : provide max response
Reply: 2.44

Ask: Item Cc1ccc([N+](=O)[O-])cc1S(=O)(=O)N1CCCN(C)CC1 : provide max response
Reply: -0.621
